Cited source for all entries: BindingDB's records for doi:10.1016/s0960-894x(98)00494-6

# measurementDescription: Compound was evaluated for inhibition of Protease
readoutType: IC50 (nM)
State just the number; it will be interpreted in nM.

Q: Quick one: IC50 of C[C@H](NC(=O)[C@H](Cc1ccccc1)NC(=O)OCc1ccccc1)C(=O)[C@H]1CO1 ?
Ans: 1000

Q: Quick one: IC50 of C[C@H](NC(=O)[C@H](Cc1ccccc1)NC(=O)OCc1ccccc1)C(=O)[C@@H]1CO1 ?
Ans: 80

Q: Quick one: IC50 of O=C(N[C@@H](Cc1ccccc1)C(=O)N[C@@H](CCc1ccccc1)C(=O)[C@@H]1CO1)OCc1ccccc1 ?
Ans: 10
